Provide the recorded z-score for the entries that follow.
# Test Summary: growth inhibitors of anaerobic choline-fed gram-negatives, minimal medium, absorbance (AID 1963822)
# Condition Context: Gram-negative bacterium anaerobic choline minimal medium, measured here: choline growth z-score, timepoint 1, stronger effect = lower value
Hit rate of the full screen: of about 55,000 compounds, about 90 (0.2%) were called active. This is one part of a sample in which actives are shown more often than they occur.
Give bare numbers.

compound=CC1CCN(CCCNC(=O)Cc2ccc(NC(=O)N3CCSc4ncccc43)cc2)CC1 number=0.79

Batch request: z-score for each of the following compounds.
1. CC(=O)N1CCCN(S(C)(=O)=O)CC1
2. Cc1ccc2c(c1)c1c(n2CC(O)CNCc2ccccc2)CCCC1 (centres undefined)
3. CC(=O)Nc1ccc(N(C)CCCc2c(C)nn(C)c2C)c(C(=O)O)c1

Solution:
1. 1.28
2. -0.69
3. 0.43
